Values were extracted from ChEMBL document CHEMBL1201862.

Biological target: Corticotropin-releasing factor receptor 2/Corticotropin-releasing factor-binding protein (Homo sapiens, UniProt P24387+Q13324)
Sequence (Q13324 whole entry): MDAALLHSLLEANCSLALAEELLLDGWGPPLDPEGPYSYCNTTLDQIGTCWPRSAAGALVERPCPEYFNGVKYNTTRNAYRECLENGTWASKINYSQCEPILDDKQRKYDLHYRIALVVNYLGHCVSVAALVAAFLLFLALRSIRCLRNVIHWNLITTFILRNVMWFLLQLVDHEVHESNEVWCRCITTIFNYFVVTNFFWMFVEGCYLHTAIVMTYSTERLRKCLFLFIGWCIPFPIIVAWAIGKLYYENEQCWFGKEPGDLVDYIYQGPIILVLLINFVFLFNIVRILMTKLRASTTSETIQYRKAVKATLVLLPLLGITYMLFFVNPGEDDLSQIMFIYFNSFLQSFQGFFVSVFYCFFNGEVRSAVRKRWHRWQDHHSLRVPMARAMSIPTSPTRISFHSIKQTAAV
Sequence (P24387 whole entry): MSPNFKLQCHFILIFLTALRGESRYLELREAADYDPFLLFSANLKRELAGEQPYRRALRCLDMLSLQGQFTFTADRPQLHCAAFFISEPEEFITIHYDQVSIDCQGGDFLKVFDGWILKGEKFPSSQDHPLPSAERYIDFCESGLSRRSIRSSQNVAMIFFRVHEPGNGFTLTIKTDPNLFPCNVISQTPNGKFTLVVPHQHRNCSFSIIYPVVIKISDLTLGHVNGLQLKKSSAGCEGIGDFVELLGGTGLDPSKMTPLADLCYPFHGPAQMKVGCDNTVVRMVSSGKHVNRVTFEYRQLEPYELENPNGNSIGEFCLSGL
Experiment: Dose Response confirmation of uHTS hits for small molecule antagonists of the CRF-binding protein and CRF-R2 receptor complex.
Type: functional
Settings: read-out: IC50_Mean
The source made the active and inactive calls. No stated cut-off is given here; in the data, actives have a measured IC50 and inactives only a lower limit.
Result category, one only: active, inactive

Give the logged outcome of this assay for the following molecule: CC1=C(C(=O)N(C(C)C)C(C)C)CC(CC(=O)NC2CCCCC2)C(=O)N1Cc1ccccc1 (stereo unspecified)
inactive

Next molecule up: "C=CCn1c(SCc2c(C)noc2C)nc2sc(C)c(C)c2c1=O"
active

Again, but for "Cc1ccc(CC(=O)NCCCc2ccccc2)cc1"
inactive

Next: "O=C(NCc1ccccc1)c1ccc(Cl)cc1"
inactive

Now give it for "Cc1nn(-c2ccccc2)c(C)c1/C=N/n1c(S)nnc1-c1ccccc1Br" too.
active

Please do the same for Cc1cc(C(=O)NNC(=O)C(CCC(N)=O)NS(=O)(=O)c2ccc(Cl)cc2)c(C)o1 (stereo unspecified) as well.
inactive

And then COc1cccc(NC(=S)NC(Cc2ccccc2)c2ccccc2)c1 (stereo unspecified) , what is it?
active

For CC(Nc1ccc([N+](=O)[O-])cc1[N+](=O)[O-])c1ccccc1 (stereo unspecified) then?
active

Entry to check: "CN1C(c2ccc(F)cc2)=CS/C1=C(/C#N)c1nnc(N2CCOCC2)n1-c1ccccc1"
inactive

What about "Oc1c(Br)cc(-c2ccccc2)cc1Br" ?
active

Subsequent entry: O=C1CC2CS(=O)(=O)CC2N1c1ccc(Oc2ccccc2)cc1 (stereo unspecified)
inactive
